- target desc: T1, Human CD137 ECD (human)
- T1 construct: entry includes C-terminal His-tag and biotin acceptor peptide; also called human CD137 extracellular domain; 4-1BB
- T1 sequence (chain, as listed by the source limits assumed): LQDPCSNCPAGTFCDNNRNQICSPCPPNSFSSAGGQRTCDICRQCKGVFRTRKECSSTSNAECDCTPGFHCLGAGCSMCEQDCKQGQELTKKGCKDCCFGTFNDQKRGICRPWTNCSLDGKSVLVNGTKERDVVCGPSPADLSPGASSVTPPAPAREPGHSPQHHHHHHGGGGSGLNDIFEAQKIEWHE
- test protocol: Biacore SPR, vs parent H183/L072
measurement label: fold change of affinity (fold)
Give bare numbers, in fold.

Illustrative cases are given below, each with its answer.
Measured fold change of affinity, H183/L072 VL H27dI (antibody, name in Kabat numbering, V domains shown, Dual-Ig) VH: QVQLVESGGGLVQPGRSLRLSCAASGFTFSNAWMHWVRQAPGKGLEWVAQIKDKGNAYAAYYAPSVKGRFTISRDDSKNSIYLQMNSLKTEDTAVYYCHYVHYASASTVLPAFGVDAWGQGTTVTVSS VL: DIVMTQSPLSLPVTPGEPASISCQASQELVIMNRNTYLHWYQQKPGQAPRLLIYKVSNRFPGVPDRFSGSGSGTDFTLKISRVEAEDVGVYYCAQGTSVPFTFGQGTKLEIK : 0.8

The binder listed as H183/L072 VL A89P (antibody, name in Kabat numbering, V domains shown, Dual-Ig) VH: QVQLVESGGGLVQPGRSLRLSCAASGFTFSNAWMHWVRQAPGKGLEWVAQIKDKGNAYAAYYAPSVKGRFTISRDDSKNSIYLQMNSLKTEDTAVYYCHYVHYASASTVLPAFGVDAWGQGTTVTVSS VL: DIVMTQSPLSLPVTPGEPASISCQASQELVHMNRNTYLHWYQQKPGQAPRLLIYKVSNRFPGVPDRFSGSGSGTDFTLKISRVEAEDVGVYYCPQGTSVPFTFGQGTKLEIK has a reported fold change of affinity of 0

I would be grateful if you could provide fold change of affinity for each of the following entries.
1. H183/L072 VL F96I (antibody, name in Kabat numbering, V domains shown, Dual-Ig) VH: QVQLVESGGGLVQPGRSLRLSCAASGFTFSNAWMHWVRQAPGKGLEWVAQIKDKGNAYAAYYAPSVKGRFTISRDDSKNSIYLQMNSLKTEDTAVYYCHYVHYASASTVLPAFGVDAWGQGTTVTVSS VL: DIVMTQSPLSLPVTPGEPASISCQASQELVHMNRNTYLHWYQQKPGQAPRLLIYKVSNRFPGVPDRFSGSGSGTDFTLKISRVEAEDVGVYYCAQGTSVPITFGQGTKLEIK
2. H183/L072 VL T92L (antibody, name in Kabat numbering, V domains shown, Dual-Ig) VH: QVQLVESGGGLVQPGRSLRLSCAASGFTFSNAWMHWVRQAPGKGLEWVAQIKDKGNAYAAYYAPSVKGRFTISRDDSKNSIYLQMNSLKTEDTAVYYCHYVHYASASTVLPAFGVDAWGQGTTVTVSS VL: DIVMTQSPLSLPVTPGEPASISCQASQELVHMNRNTYLHWYQQKPGQAPRLLIYKVSNRFPGVPDRFSGSGSGTDFTLKISRVEAEDVGVYYCAQGLSVPFTFGQGTKLEIK
3. H183/L072 VL Q27D (antibody, name in Kabat numbering, V domains shown, Dual-Ig) VH: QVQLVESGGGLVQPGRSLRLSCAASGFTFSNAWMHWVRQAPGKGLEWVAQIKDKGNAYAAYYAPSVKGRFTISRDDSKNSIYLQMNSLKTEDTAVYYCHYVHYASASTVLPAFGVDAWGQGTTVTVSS VL: DIVMTQSPLSLPVTPGEPASISCQASDELVHMNRNTYLHWYQQKPGQAPRLLIYKVSNRFPGVPDRFSGSGSGTDFTLKISRVEAEDVGVYYCAQGTSVPFTFGQGTKLEIK
4. H183/L072 VL S52W (antibody, name in Kabat numbering, V domains shown, Dual-Ig) VH: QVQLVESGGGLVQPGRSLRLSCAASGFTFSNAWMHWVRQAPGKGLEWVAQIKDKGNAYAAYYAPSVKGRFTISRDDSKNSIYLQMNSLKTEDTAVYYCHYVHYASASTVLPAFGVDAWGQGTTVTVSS VL: DIVMTQSPLSLPVTPGEPASISCQASQELVHMNRNTYLHWYQQKPGQAPRLLIYKVWNRFPGVPDRFSGSGSGTDFTLKISRVEAEDVGVYYCAQGTSVPFTFGQGTKLEIK
5. H183/L072 VL P95S (antibody, name in Kabat numbering, V domains shown, Dual-Ig) VH: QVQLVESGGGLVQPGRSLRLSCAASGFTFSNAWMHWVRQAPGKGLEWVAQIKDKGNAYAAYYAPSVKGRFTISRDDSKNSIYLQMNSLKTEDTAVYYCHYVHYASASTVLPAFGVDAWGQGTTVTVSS VL: DIVMTQSPLSLPVTPGEPASISCQASQELVHMNRNTYLHWYQQKPGQAPRLLIYKVSNRFPGVPDRFSGSGSGTDFTLKISRVEAEDVGVYYCAQGTSVSFTFGQGTKLEIK
6. H183/L072 VL N30W (antibody, name in Kabat numbering, V domains shown, Dual-Ig) VH: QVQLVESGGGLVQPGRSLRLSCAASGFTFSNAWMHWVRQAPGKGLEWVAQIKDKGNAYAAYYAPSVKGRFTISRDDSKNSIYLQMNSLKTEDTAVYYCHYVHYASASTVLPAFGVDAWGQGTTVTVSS VL: DIVMTQSPLSLPVTPGEPASISCQASQELVHMNRWTYLHWYQQKPGQAPRLLIYKVSNRFPGVPDRFSGSGSGTDFTLKISRVEAEDVGVYYCAQGTSVPFTFGQGTKLEIK

Result:
1: 0; 2: 0.2; 3: 0.9; 4: 1; 5: 0; 6: 0.9

# return fold change of affinity for each item in the list
1. H183/L072 VL T97S (antibody, name in Kabat numbering, V domains shown, Dual-Ig) VH: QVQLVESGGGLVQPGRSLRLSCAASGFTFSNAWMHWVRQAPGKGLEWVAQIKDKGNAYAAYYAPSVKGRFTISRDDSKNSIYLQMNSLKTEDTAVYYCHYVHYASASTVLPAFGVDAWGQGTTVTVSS VL: DIVMTQSPLSLPVTPGEPASISCQASQELVHMNRNTYLHWYQQKPGQAPRLLIYKVSNRFPGVPDRFSGSGSGTDFTLKISRVEAEDVGVYYCAQGTSVPFSFGQGTKLEIK
2. H183/L072 VL L33Y (antibody, name in Kabat numbering, V domains shown, Dual-Ig) VH: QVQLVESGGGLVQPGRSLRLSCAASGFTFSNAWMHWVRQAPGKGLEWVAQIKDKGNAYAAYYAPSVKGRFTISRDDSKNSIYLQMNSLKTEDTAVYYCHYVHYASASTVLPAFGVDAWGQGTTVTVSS VL: DIVMTQSPLSLPVTPGEPASISCQASQELVHMNRNTYYHWYQQKPGQAPRLLIYKVSNRFPGVPDRFSGSGSGTDFTLKISRVEAEDVGVYYCAQGTSVPFTFGQGTKLEIK

Result:
1. 0.8
2. 0.1
